Provenance of the data: patent US8383637B2

# systemUnderTest: β-secretase(BACE) (Homo sapiens, UniProt P56817)
# Construct: purchased Panvera
# Sequence (P56817 46-501): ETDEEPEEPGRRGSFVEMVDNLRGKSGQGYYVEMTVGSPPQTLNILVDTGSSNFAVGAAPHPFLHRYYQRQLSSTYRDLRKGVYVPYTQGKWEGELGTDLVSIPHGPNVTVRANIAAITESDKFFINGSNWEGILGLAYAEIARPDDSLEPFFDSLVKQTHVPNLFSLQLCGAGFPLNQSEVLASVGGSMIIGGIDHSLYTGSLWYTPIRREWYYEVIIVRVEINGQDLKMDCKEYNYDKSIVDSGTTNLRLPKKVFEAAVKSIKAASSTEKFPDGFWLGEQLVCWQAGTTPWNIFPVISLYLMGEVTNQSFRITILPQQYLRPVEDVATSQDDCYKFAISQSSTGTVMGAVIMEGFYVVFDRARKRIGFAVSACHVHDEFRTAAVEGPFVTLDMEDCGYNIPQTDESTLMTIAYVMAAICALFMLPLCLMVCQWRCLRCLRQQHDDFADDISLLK
# runDescription: BACE FS1% Inhibition Assay
# Format: biochemical
# conditionsUsed: 3 μM test compound; FS1 substrate; read-out: % Inhibition (FS) 3 μM

# molecule, systemUnderTest, unit, inhibition at 3 µM
rows = [
    ("Cc1ccccc1-c1ccc2c(c1)CN(CCNC(=O)C1CCCC1)C(N)=N2", "β-secretase(BACE) (Homo sapiens, UniProt P56817)", "%", 111),
    ("CN(C(=O)c1cccc(CN2Cc3cc(-c4ccccc4C(F)(F)F)ccc3N=C2N)c1)C1CCCCC1", "β-secretase(BACE) (Homo sapiens, UniProt P56817)", "%", 71),
    ("CN(C(=O)CC[C@@H](CO)N1Cc2cc(Oc3ccccc3)ccc2N=C1N)C1CCCCC1", "β-secretase(BACE) (Homo sapiens, UniProt P56817)", "%", 115),
    ("CCC(c1cccc(C(=O)N(C2CCCCC2)C2CCCCC2)c1)N1Cc2cc(-c3ccccc3OC)ccc2N=C1N (centres unmarked)", "β-secretase(BACE) (Homo sapiens, UniProt P56817)", "%", 119),
    ("CC(C)CC(=O)NC[C@@H](C(C)C)N1Cc2cc(Oc3ccccc3)ccc2N=C1N", "β-secretase(BACE) (Homo sapiens, UniProt P56817)", "%", 127),
    ("CN(C(=O)c1cccc(CN2Cc3cc(-c4ccccc4C(N)=O)ccc3N=C2N)c1)C1CCCCC1", "β-secretase(BACE) (Homo sapiens, UniProt P56817)", "%", 76),
    ("CCCC(CCC(=O)NC1CCCCC1)N1Cc2cc(Oc3ccccc3)ccc2N=C1N (centres unmarked)", "β-secretase(BACE) (Homo sapiens, UniProt P56817)", "%", 113),
    ("CN(C(=O)CCC(c1ccc(Cl)cc1)N1Cc2cc(Oc3ccccc3)ccc2N=C1N)C1CCCCC1 (centres unmarked)", "β-secretase(BACE) (Homo sapiens, UniProt P56817)", "%", 109),
]

* * *

# systemUnderTest: β-secretase(BACE) (Homo sapiens)
# Construct: purchased Panvera
# runDescription: BACE FS1% Inhibition Assay
# Type: biochemical
# conditionsUsed: 3 μM test compound; FS1 substrate
Would you mind sorting the entries by % Inhibition (FS) 3 μM according to these classes? low interval = under 40%, middle interval = from 40% up to 80%, high interval = 80% and over

# compound, assignedCategory
measured = [
    ("CC(C)N(C(=O)CC(C1CCCCC1)N1Cc2cc(Oc3ccccc3)ccc2N=C1N)C1CCCCC1 (centres unmarked)", "low interval"),
    ("CC(=O)c1cccc(-c2ccc3c(c2)CN(CCNC(=O)Cc2ccccc2)C(N)=N3)c1", "low interval"),
    ("CN(C(=O)c1cccc(CN2Cc3cc(Sc4ccc5ccccc5c4)ccc3N=C2N)c1)C1CCCCC1", "middle interval"),
    ("CN(C)c1ccc(C(=O)NCCN2Cc3cc(Oc4ccccc4)ccc3N=C2N)cc1", "low interval"),
    ("Cc1ccc(-c2ccc3c(c2)CN(CCNC(=O)C2CCCCC2)C(N)=N3)cc1", "low interval"),
    ("CN(C(=O)CCC(C1CCCCC1)N1Cc2cc(Oc3ccccc3)ccc2N=C1N)C1CCC(O)CC1 (centres unmarked)", "middle interval"),
    ("CCCC(CCC)C(=O)N1CCCCC(N2Cc3cc(Oc4ccccc4)ccc3N=C2N)C1 (centres unmarked)", "low interval"),
    ("COc1ccc(F)cc1-c1ccc2c(c1)CN(CCNC(=O)C1CCCCC1)C(N)=N2", "middle interval"),
    ("COc1ccccc1-c1ccc2c(c1)CN(CCNC(=O)C1(C(N)=O)CC1)C(N)=N2", "low interval"),
    ("NC1=Nc2ccc(Oc3ccccc3)cc2CN1CCNC(=O)C(c1ccccc1)c1ccccc1", "high interval"),
    ("NC1=Nc2ccc(Oc3ccccc3)cc2CN1[C@H](CNC(=O)C1CCCCC1)C1CCCCC1", "middle interval"),
    ("CN(C(=O)c1cccc(CN2Cc3cc(C=Cc4ccccc4)ccc3N=C2N)c1)C1CCCCC1", "low interval"),
    ("COc1ccccc1Oc1ccc2c(c1)CN(Cc1cccc(C(=O)N(C)C3CCCCC3)c1)C(N)=N2", "low interval"),
    ("CC(C)c1ccccc1Oc1ccc2c(c1)CN(CCC(=O)NC1C3CC4CC(C3)CC1C4)C(N)=N2 (centres unmarked)", "middle interval"),
    ("CN(C(=O)c1ccc(CN2Cc3cc(Oc4ccccc4)ccc3N=C2N)s1)C1CCCCC1", "high interval"),
    ("COc1ccccc1Sc1ccc2c(c1)CN(Cc1cccc(C(=O)N(C)C3CCCCC3)c1)C(N)=N2", "middle interval"),
    ("CC(C)N(C(=O)CCN1Cc2cc(Oc3ccccc3)ccc2N=C1N)C(C)C", "low interval"),
    ("CCCC(=O)NCCN1Cc2cc(-c3cncnc3)ccc2N=C1N", "low interval"),
    ("CCCCCCCCC(CCC(=O)N(C)C1CCCCC1)N1Cc2cc(Oc3ccccc3)ccc2N=C1N (centres unmarked)", "low interval"),
    ("CN(C(=O)c1cccc(CN2Cc3cc(-c4ccc(C(N)=O)cc4)ccc3N=C2N)c1)C1CCCCC1", "low interval"),
    ("CCCCCC(CCC(=O)NC1CCCCCC1)N1Cc2cc(Oc3ccccc3)ccc2N=C1N (centres unmarked)", "high interval"),
    ("CCCC(CCC)C(=O)N1CCCC(N2Cc3cc(Oc4ccccc4)ccc3N=C2N)C1 (centres unmarked)", "low interval"),
    ("NC1=Nc2ccc(-c3ccccc3)cc2CN1CCNC(=O)Cc1ccccc1", "high interval"),
    ("CSc1ccccc1Oc1ccc2c(c1)CN(Cc1cccc(C(=O)N(C)C3CCCCC3)c1)C(N)=N2", "low interval"),
    ("NC1=Nc2ccc(Oc3ccccc3)cc2CN1CCNC(=O)CCc1ccccc1", "low interval"),
    ("CN(C(=O)c1cccc(CN2Cc3cc(Sc4cccc5ccccc45)ccc3N=C2N)c1)C1CCCCC1", "low interval"),
    ("NC1=Nc2ccc(Oc3ccccc3)cc2CN1CCNCC1CCCCC1", "middle interval"),
    ("CC(C)CCC(=O)N1CCCC(N2Cc3cc(Oc4ccccc4)ccc3N=C2N)C1 (centres unmarked)", "low interval"),
    ("NC1=Nc2ccc(Oc3ccccc3)cc2CN1CCC(=O)N(C1CCCCC1)C1CCCCC1", "middle interval"),
    ("CC(C)C(CC(=O)NC1C2CC3CC(C2)CC1C3)N1Cc2cc(Oc3ccccc3)ccc2N=C1N (centres unmarked)", "high interval"),
]
